target_of_assay: EFA6R (GFP-EFA6R), isoform B (Homo sapiens)
Construct: full-length isoform B, N-terminal GFP tag (pEGFPC2), transiently expressed in COS7 cells, lysate used; endogenous protein runs at 56 kDa
Sequence (Q9NYI0 1-513 isoform Q9NYI0-3 limits assumed): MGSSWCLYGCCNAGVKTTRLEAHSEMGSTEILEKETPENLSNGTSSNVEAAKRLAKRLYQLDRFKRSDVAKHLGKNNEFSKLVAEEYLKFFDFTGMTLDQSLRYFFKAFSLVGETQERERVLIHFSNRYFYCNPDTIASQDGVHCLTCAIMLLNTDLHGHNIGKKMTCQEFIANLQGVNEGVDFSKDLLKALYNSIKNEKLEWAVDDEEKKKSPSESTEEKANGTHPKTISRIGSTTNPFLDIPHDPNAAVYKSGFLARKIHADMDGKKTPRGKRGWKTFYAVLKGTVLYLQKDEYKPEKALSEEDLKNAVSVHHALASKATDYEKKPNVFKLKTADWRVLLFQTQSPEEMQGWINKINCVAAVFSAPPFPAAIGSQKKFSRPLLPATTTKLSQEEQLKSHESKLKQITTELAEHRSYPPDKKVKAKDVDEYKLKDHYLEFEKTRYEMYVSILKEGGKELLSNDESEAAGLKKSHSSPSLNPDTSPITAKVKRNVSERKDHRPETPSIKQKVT
experimental_details: competition pulldown: displacement from biotinylated PI-avidin beads by soluble diC8 lipid, immunoblot densitometry
experimental_setup: concentration blocking 50% of binding to PI 4,5-P2 beads (in the methods PI 3,4-P2 beads); cell lysate, pH 7.4, 150 mM NaCl, 0.5% Nonidet P-40, 4 °C; PH domain; read-out: EC50 (the source's name)
Documented IC50 across a set of compounds

[[record]]
compound = "CCCCCCCC(=O)OC[C@H](COP(=O)(O)O[C@H]1[C@H](O)[C@@H](O)[C@H](OP(=O)(O)O)[C@@H](OP(=O)(O)O)[C@H]1O)OC(=O)CCCCCCC [PI 3,4-P2]"
readout_type = "IC50"
experimental_value = "> 10 µM"

[[record]]
compound = "CCCCCCCC(=O)OC[C@H](COP(=O)(O)O[C@@H]1[C@H](O)[C@H](O)[C@@H](OP(=O)(O)O)[C@H](OP(=O)(O)O)[C@H]1O)OC(=O)CCCCCCC [PI 4,5-P2]"
readout_type = "IC50"
experimental_value = "1.1 µM"

[[record]]
compound = "CCCCCCCC(=O)OC[C@H](COP(=O)(O)O[C@@H]1[C@H](O)[C@H](OP(=O)(O)O)[C@@H](O)[C@H](O)[C@H]1O)OC(=O)CCCCCCC [PI 3-phosphate]"
readout_type = "IC50"
experimental_value = "> 10 µM"


For the next question, use this compound.
Query :: Which IC50 value belongs to CCCCCCCC(=O)OC[C@H](COP(=O)(O)O[C@H]1[C@H](O)[C@@H](OP(=O)(O)O)[C@H](OP(=O)(O)O)[C@@H](OP(=O)(O)O)[C@H]1O)OC(=O)CCCCCCC [PI 3,4,5-trisphosphate] ?
Result :: > 10 µM

Origin of the recorded values: paper PMC4246094
